// pIC50 lookup, one value per entry
System: HCT116 multicellular tumor spheroids (3D)
Procedure summary: Resazurin assay, HCT116 3D multicellular tumor spheroids
Condition context: read-out: IC50 3D; HCT116 3D spheroids, resazurin assay, 96 h exposure
For clarity, pIC50 is expressed as the negative log10 of concentration in mol/L.

// worked examples, pIC50 included
{"Compound structure string": "CS(=O)(=O)c1ccc(-c2cscn2)[c]([Ru][Cl])c1.Cc1ccc(C(C)C)cc1", "pIC50": 5.05}
{"Compound structure string": "Cc1ccc(C(C)C)cc1.[Cl][Ru][c]1ccccc1-c1cscn1", "pIC50": 4.51}
{"Compound structure string": "Cc1ccc(C(C)C)cc1.Cn1cc[n+]([Ru-]2[c]3ccccc3-c3csc[n+]32)c1.O=[N+]([O-])[O-]", "pIC50": 4.97}
{"Compound structure string": "Cc1ccc(C(C)C)cc1.Cn1cc[n+]([Ru-]2[c]3cc(S(C)(=O)=O)ccc3-c3csc[n+]32)c1.O=[N+]([O-])[O-]", "pIC50": 3.65}
{"Compound structure string": "Cc1ccc(C(C)C)cc1.Cn1cc[n+]([Os-]2[c]3ccccc3-c3csc[n+]32)c1.O=[N+]([O-])[O-]", "pIC50": 5.03}

For the compound Cc1ccc(C(C)C)cc1.Cn1cc[n+]([Os-]2[c]3cc(S(C)(=O)=O)ccc3-c3csc[n+]32)c1.O=[N+]([O-])[O-] , what pIC50 is on record?
3.46
